All values here come from PubChem BioAssay.

# assayExplanation: compounds altering HSF1 focus formation in cells – imaging, Selleck Cancer Library (AID 1347162)
# conditions: human cells, HSF1 nuclear foci imaging, at 10 µM; stronger effect = lower value
quantity: plate-normalised HSF1 focus index
A bare number is all that is needed in reply.

// worked examples, plate-normalised HSF1 focus index included
CCCS(=O)(=O)Nc1ccc(F)c(C(=O)c2c[nH]c3ncc(-c4ccc(Cl)cc4)cc23)c1F :: 1.15
COc1cc(Nc2ncc(F)c(Nc3ccc4c(n3)N(COP(=O)(O)O)C(=O)C(C)(C)O4)n2)cc(OC)c1OC :: 0.825
Cc1nc(N)sc1-c1ccnc(Nc2ccc(N3CCOCC3)cc2)n1 :: 1.12

Look at this compound and give its reported plate-normalised HSF1 focus index. CC[C@@H]1C(=O)N(C)c2cnc(Nc3ccc(C(=O)NC4CCN(C)CC4)cc3OC)nc2N1C1CCCC1
1.16

Look at this compound and give its reported plate-normalised HSF1 focus index. COc1ccc(S(=O)(=O)Nc2cccnc2Nc2ccc(O)cc2)cc1
1.07

Look at this compound and give its reported plate-normalised HSF1 focus index. COc1nc(-c2ccc3c(c2)OCO3)n(-c2ccc(NC(=O)CSc3ccccc3)cc2)n1
1.06

Look at this compound and give its reported plate-normalised HSF1 focus index. Fc1cc(-c2cccc3ncc(-c4cnn(C5CCNCC5)c4)nc23)cc(F)c1CN1CCOCC1
0.613

Look at this compound and give its reported plate-normalised HSF1 focus index. COC(=O)C1=C(C)NC(C)=C(C(=O)OCCCN2CCC(c3ccccc3)(c3ccccc3)CC2)[C@H]1c1cccc([N+](=O)[O-])c1
0.927

====

# assayExplanation: viability loss with induced miR-34 in A549 – imaging, A549 dox-inducible miR-34, nuclei and caspase counts, primary screen (AID 1347080)
# conditions: A549 miR-34 inducible, Hoechst nuclei count, 48 h; measured here: total cells with miR-34 induction; stronger effect = lower value
quantity: cell count
A bare number is all that is needed in reply.

CCCCCCCCCCCCC/C=C/[C@@H](O)[C@H](CO)NC(=O)CCCCC :: 5840
O=C(O)CCC/C=C\C[C@@H]1[C@@H](CCC(=O)CCc2ccccc2)[C@H](O)C[C@@H]1O :: 5970
CC(C)Oc1ccc(C(=O)c2ccc(NC3=NCCN3)cc2)cc1 :: 6020
COc1cccc(NC(=O)/C=C/c2ccc(Cl)cc2)c1 :: 5860

Look at this molecule and give its reported cell count. CCCCC[C@@](C)(O)/C=C/[C@@H]1[C@@H](C/C=C\CCCC(=O)OC)[C@@H](O)C[C@H]1O
5940

====

# assayExplanation: viability loss in pontine glioma line – cell-based, SU-DIPG-XIII, MIPE5.0, CellTiter-Glo, qHTS, dose response (AID 1347064);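 for AC50: cells exposed to compound for 48 hours before the viability read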
# conditions: CellTiter-Glo ATP luminescence
Inconclusive results are not listed. Active and inactive are the calls of the source. Cut-off not given; nearly all actives show AC50 up to about 23 µM.
quantity: AC50

// worked examples, AC50 included
COc1cc2c(cc1OC)CC(=O)N(CCCN(C)C[C@H]1Cc3cc(OC)c(OC)cc31)CC2 :: inactive
Cc1cc(Nc2ncc3c(n2)N(C)C(=O)N(c2cc(NC(=O)c4cccc(C(F)(F)F)c4)ccc2C)C3)n(C)n1 :: 0.105 µM (active)
Clc1cccc(-c2ccc(-c3nnc(CCCc4ccc5cccnc5n4)o3)cc2)c1 :: inactive
Cc1ncc(-c2ccnc(Nc3ccc(S(C)(=O)=O)cc3)n2)n1C(C)C :: 3.72 µM (active)
N#CC1(c2cccc(C(=O)Nc3cc(Oc4ccc5nc(NC(=O)C6CC6)sc5n4)ccc3F)c2Cl)CC1 :: 0.742 µM (active)
CNC(=O)Cn1cc(-c2ccc3c(c2)C(F)CC32NC(=O)N(CC(=O)N(Cc3ccc(F)cc3)[C@@H](C)C(F)(F)F)C2=O)cn1 (stereo not given in full) :: inactive
COc1ccccc1-c1cccc(-c2c(O)c3cc(C#N)c(Cl)cc3[nH]c2=O)c1 :: inactive
COc1ccc(-c2cc(C(O)C3CCCCN3)c3ccccc3n2)cc1 (stereo not given) :: 16.6 µM (active)

Look at this compound and give its reported AC50. CC(C)(Cc1ccc2ccccc2c1)NC[C@@H](O)COc1cccc(Cl)c1C#N
8.33 µM (active)

Look at this compound and give its reported AC50. COc1cc(N2CCC(N3CCN(C)CC3)CC2)ccc1Nc1ncc(Cl)c(Nc2ccccc2S(=O)(=O)C(C)C)n1
0.661 µM (active)

Look at this compound and give its reported AC50. Cc1cc(C(=O)Nc2cc(Oc3ccc4nc(NC(=O)C5CC5)cn4n3)ccc2C)n(C)n1
10.5 µM (active)

Look at this compound and give its reported AC50. COc1cccc2c1C(=O)c1c(O)c3c(c(O)c1C2=O)C[C@@](O)(/C(CO)=N/NC(=O)CCCCCN1C(=O)C=CC1=O)C[C@@H]3O[C@H]1C[C@H](N)[C@H](O)[C@H](C)O1
4.68 µM (active)

Look at this compound and give its reported AC50. COc1ccc(Cl)cc1-c1cc(=O)[nH]c(=S)n1CC(N)=O
inactive

Look at this compound and give its reported AC50. Cn1cnc(-c2cc3nccc(Oc4ccc(NC(=S)NC(=O)Cc5ccccc5)cc4F)c3s2)c1
18.6 µM (active)

Look at this compound and give its reported AC50. Nc1nc2cc(-c3ccc4ncc(C(=O)N5CCOCC5)n4c3)ccc2o1
14.8 µM (active)
